target: HLA-B*51:01; test: IEDB peptide-MHC binding, purified MHC/competitive/fluorescence; filed as Kd, often an IC50 or EC50 that approximates it; bounds were set here for any values at or beyond the usual limits of such assays; conditions: source organism: Giardia lamblia ATCC 50803
reportedEndpoint: Kd

Query: Data request, read-out Kd, for TMNSRYYLV
Response: ≥ 20 µM

---

target: HLA-A*02:19; experiment: IEDB peptide-MHC binding, purified MHC/competitive/fluorescence; filed as Kd, often an IC50 or EC50 that approximates it; bounds were set here for any values at or beyond the usual limits of such assays; conditions: source organism: Francisella tularensis subsp. tularensis FSC198
reportedEndpoint: Kd

Query: Data request, read-out Kd, for RSFPEWDYI
Response: ≥ 20 µM

---

molecular target: HLA-A*01:01; test: IEDB peptide-MHC binding, purified MHC/competitive/fluorescence; filed as Kd, often an IC50 or EC50 that approximates it; bounds were set here for any values at or beyond the usual limits of such assays; settings: source organism: Brucella canis ATCC 23365
pKd: −log10 of the molar value.
reportedEndpoint: pKd

Query: Data request, read-out pKd, for ETVWPFFYA
Response: ≤ 5.30

---

target: HLA-A*68:02; assay: IEDB peptide-MHC binding, purified MHC/direct/fluorescence; filed as Kd, often an IC50 or EC50 that approximates it; bounds were set here for any values at or beyond the usual limits of such assays; details: source organism: Giardia lamblia ATCC 50803
pKd: −log10 of the molar value.
reportedEndpoint: pKd

Query: Data request, read-out pKd, for QLKQRDALF
Response: ≤ 4.70

---

target: HLA-A*24:03; test: IEDB peptide-MHC binding, purified MHC/direct/fluorescence; filed as Kd, often an IC50 or EC50 that approximates it; bounds were set here for any values at or beyond the usual limits of such assays; details: source organism: Bacillus cereus G9842
reportedEndpoint: Kd

Query: Data request, read-out Kd, for TQIPRQMVL
Response: ≥ 20 µM

---

target: HLA-A*02:06; test: IEDB peptide-MHC binding, purified MHC/competitive/radioactivity; filed as Kd, often an IC50 or EC50 that approximates it; bounds were set here for any values at or beyond the usual limits of such assays; settings: source organism: Mammarenavirus guanaritoense
reportedEndpoint: pKd
// returns pKd (minus log10 of molar concentration), number only

Query: Data request, read-out pKd, for WSAIFFTTSL
Response: 5.85

---

target: HLA-A*02:19; assay: IEDB peptide-MHC binding, purified MHC/competitive/fluorescence; filed as Kd, often an IC50 or EC50 that approximates it; bounds were set here for any values at or beyond the usual limits of such assays; conditions: source organism: Escherichia coli B171
pKd: −log10 of the molar value.
reportedEndpoint: pKd

Query: Data request, read-out pKd, for KAIIDTAQF
Response: ≤ 4.70

---

molecular target: HLA-A*11:01; experiment: IEDB peptide-MHC binding, purified MHC/competitive/radioactivity; filed as Kd, often an IC50 or EC50 that approximates it; bounds were set here for any values at or beyond the usual limits of such assays; details: source organism: Vaccinia virus WR
A collection of sequences and their measured Kd
Could you give me the number in nM? Just the number is fine.

Consider the worked cases shown below.
Query: Item QAIEPSGNNY with HLA-A*11:01 - Kd?
Response: 4820

Query: Now give it for ESMASLKSLY too.
Response: 116

Query: Now give it for AVVADLSAR too.
Response: 51.8

Continuing:
Query: Item ILHAYCGIK with HLA-A*11:01 - Kd?
Response: 582

Query: Now give it for TVLGLGLSLK too.
Response: 1.61

Query: Now give it for SIFPANINDK too.
Response: 7.48

Query: Now give it for YLTMKAIEK too.
Response: 867

Query: Now give it for SSRVDRYSKK too.
Response: 332

Query: Now give it for NSYISNIIY too.
Response: 2490

Query: Now give it for LLIWAYLSK too.
Response: 101
